assay: Dynamic solubility test in water and biological vehicles; assay type: physicochemical; details: simulated gastric fluid (SGF), pH 1.8, simulated gastric fluid, thermodynamic from solid; vehicle SGF, 24 h, 37° C.; read-out: S: Solubility
measured-quantity: solubility at 24 h (µg/mL)
Output spec: scalar in µg/mL, unitless text.

Param item = [2H]C([2H])([2H])N(c1nc(-c2ccc(F)cc2)c(C#N)s1)c1c(CC)nn2cc(F)c(N3CCN(CC(=O)N4CC(O)C4)CC3)cc12 [Compound A Crystal form I] ; retrieve measured solubility at 24 h.
14

====

test: Pharmacokinetic test in mice; type: in vivo; settings: male, C57, mouse, plasma, IV 1 mg/kg
measured-quantity: AUC (ng·h/mL)
Output spec: scalar in ng·h/mL, unitless text.

Param item = [2H]C([2H])([2H])N(c1nc(-c2ccc(F)cc2)c(C#N)s1)c1c(CC)nn2cc(F)c(N3CCN(CC(=O)N4CC(O)C4)CC3)cc12 ; retrieve measured AUC.
1490

Origin of the recorded values: patent US20240317736A1
